FYI, the data here is from paper PMC11784145.

# Average Sol (solubility limit) listing for each entry below
method summary: Solubility limit, turbidimetric assay
Format: physicochemical
test settings: pH 6.5 (fasted simulated intestinal fluid); upper limit 200 µM

>  <compound>
CC(=NOCc1ccc(C)cc1)c1c(C)cc(=O)n(O)c1O [Compound 1462]

>  <Average Sol (solubility limit)>
> 200 µM

$$$$

# compound CC(=NOCc1cccc(F)c1)c1c(C)cc(=O)n(O)c1O [Compound 1618] ; its Average Sol (solubility limit) = > 200 µM

Quick note, Average Sol (solubility limit) for CC(=NOCc1ccc(F)cc1F)c1c(C)cc(=O)n(O)c1O [Compound 1464] landed at > 200 µM

Consider CC(=NOCc1cccc(C)c1)c1c(C)cc(=O)n(O)c1O [Compound 1620] . Its measured Average Sol (solubility limit) is > 200 µM

// field: Average Sol (solubility limit); key: CC(=NOCc1ccc(F)c(F)c1)c1c(C)cc(=O)n(O)c1O [Compound 1617] ; value = > 200 µM

* * *

method summary: Parallel artificial membrane permeability assay (PAMPA)
Type: in vitro ADME
test settings: pH 7.4, replicate 2
quantity name: Papp 2 (PAMPA) (nm/s)
Give the value, in units of nm/s, as a plain number.

Papp 2 (PAMPA) reported for this compound CC(=NOCc1cccc(Cl)c1)c1c(C)cc(=O)n(O)c1O : 29.9

Papp 2 (PAMPA) reported for this compound CC(=NOCc1ccccc1Br)c1c(C)cc(=O)n(O)c1O : 30.7

Measured Papp 2 (PAMPA) of CC(=NOCc1ccc(F)cc1F)c1c(C)cc(=O)n(O)c1O : 23.1

Form field Papp 2 (PAMPA), entry CC(=NOCc1ccc(C(F)(F)F)cc1)c1c(C)cc(=O)n(O)c1O : 44

The value of Papp 2 (PAMPA) measured for the compound CC(=NOCc1ccc(OCc2ccc3ccccc3c2)cc1)c1c(C)cc(=O)n(O)c1O turned out to be 10.8

* * *

method summary: Parallel artificial membrane permeability assay (PAMPA)
Assay type: in vitro ADME
test settings: pH 7.4
Method: Compound Papp values were determined by normalizing the experimental compound absorbance to the compounds’ absorbances at equilibrium, membrane porosity, buffer volume, and time (s). Two or more replicate assays were obtained on separate days for each pH.
quantity name: Avg Papp (PAMPA) (cm/s)
Give your result in cm/s as a bare value.

Consider the worked cases shown below.
>  <smiles repr>
CC(=NOCc1cccc(C)c1)c1c(C)cc(=O)n(O)c1O

>  <Avg Papp (PAMPA) / cm/s>
1.38e-06

$$$$
>  <smiles repr>
CC(=NOCc1ccc2ccccc2c1)c1c(C)cc(=O)n(O)c1O

>  <Avg Papp (PAMPA) / cm/s>
3.57e-06

$$$$
>  <smiles repr>
CC(=NOCc1cc(F)ccc1F)c1c(C)cc(=O)n(O)c1O

>  <Avg Papp (PAMPA) / cm/s>
3.23e-06

$$$$

Continue with the next molecule.
Lookup result for CC(=NOCc1ccc(F)cc1F)c1c(C)cc(=O)n(O)c1O ; measured Avg Papp (PAMPA): 2.49e-06

* * *

method summary: Parallel artificial membrane permeability assay (PAMPA)
Type: in vitro ADME
test settings: pH 7.4, replicate 2
quantity name: Papp 2 (PAMPA) (×10⁻⁶ cm/s)
Only the number, expressed in ×10⁻⁶ cm/s, is required.

Below: 7 compounds and their reported Papp 2 (PAMPA).
>  <compound>
CC(=NOCc1ccc(Cl)cc1)c1c(C)cc(=O)n(O)c1O [Compound 1466]

>  <Papp 2 (PAMPA) (×10⁻⁶ cm/s)>
2.48

$$$$
>  <compound>
CC(=NOCc1cccc(F)c1)c1c(C)cc(=O)n(O)c1O [Compound 1618]

>  <Papp 2 (PAMPA) (×10⁻⁶ cm/s)>
0.582

$$$$
>  <compound>
COc1ccc(CON=C(C)c2c(C)cc(=O)n(O)c2O)cc1OC [Compound 1669]

>  <Papp 2 (PAMPA) (×10⁻⁶ cm/s)>
2.2

$$$$
>  <compound>
CC(=NOCc1cccc(C)c1)c1c(C)cc(=O)n(O)c1O [Compound 1620]

>  <Papp 2 (PAMPA) (×10⁻⁶ cm/s)>
1.38

$$$$
>  <compound>
CC(=NOCc1ccc(Br)cc1)c1c(C)cc(=O)n(O)c1O [Compound 1717]

>  <Papp 2 (PAMPA) (×10⁻⁶ cm/s)>
1.61

$$$$
>  <compound>
CC(=NOCc1ccc(OCc2ccc(C(C)(C)C)cc2)cc1)c1c(C)cc(=O)n(O)c1O [Compound 1808]

>  <Papp 2 (PAMPA) (×10⁻⁶ cm/s)>
2.6

$$$$
>  <compound>
CC(=NOCc1cccc(Br)c1)c1c(C)cc(=O)n(O)c1O [Compound 1621]

>  <Papp 2 (PAMPA) (×10⁻⁶ cm/s)>
4.47

$$$$

Now take the following compound into account.
Sure, the documented Papp 2 (PAMPA) for CC(=NOCc1ccccc1C)c1c(C)cc(=O)n(O)c1O [Compound 1681] is 9.39
